Where these numbers come from: patent US20220194983A1

target: T1, prostate-specific membrane antigen (PSMA) (human, UniProt Q04609 44-750, limits assumed); experiment: fluorescence polarization, FP (h)
T1 construct: also called Glutamate carboxypeptidase II; GCPII
T1 sequence (Q04609 44-750 limits assumed): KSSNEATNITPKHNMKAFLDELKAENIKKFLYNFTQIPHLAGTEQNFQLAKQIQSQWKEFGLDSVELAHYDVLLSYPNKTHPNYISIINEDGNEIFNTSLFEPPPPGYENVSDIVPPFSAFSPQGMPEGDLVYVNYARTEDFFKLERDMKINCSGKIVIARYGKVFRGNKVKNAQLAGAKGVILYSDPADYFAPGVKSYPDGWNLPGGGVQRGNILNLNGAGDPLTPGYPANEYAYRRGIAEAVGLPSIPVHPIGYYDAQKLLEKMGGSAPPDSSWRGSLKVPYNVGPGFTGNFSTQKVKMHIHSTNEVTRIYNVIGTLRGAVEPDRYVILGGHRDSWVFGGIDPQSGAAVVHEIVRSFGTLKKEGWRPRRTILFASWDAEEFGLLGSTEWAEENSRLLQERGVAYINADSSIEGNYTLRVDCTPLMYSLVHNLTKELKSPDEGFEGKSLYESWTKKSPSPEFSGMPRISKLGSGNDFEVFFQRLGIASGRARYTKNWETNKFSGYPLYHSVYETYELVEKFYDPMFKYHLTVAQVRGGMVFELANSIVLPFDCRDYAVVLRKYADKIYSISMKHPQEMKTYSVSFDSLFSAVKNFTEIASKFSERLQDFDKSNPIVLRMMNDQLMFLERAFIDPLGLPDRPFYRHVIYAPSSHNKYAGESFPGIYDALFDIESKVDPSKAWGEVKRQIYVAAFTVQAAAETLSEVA
Numbered stars: 1 amine (or outer) side, 2 acyl side, 3 side chain; on linkers, the order of the positions; unused ones are H or OH. Bridge positions count the residues as written; N and C are the ends. Ends that are not written are not given here. TBMB = c1c(C[*:1])cc(C[*:3])cc1C[*:2]
READOUT: Ki (nM)

[[record]]
binder = "EVCWDCFMMEDGTCAXXXXXXK (N-terminal acetyl; D-Glu at 1; Cys 3, 6 and 14 joined by thioether linkages to TBMB scaffold; X16-X21 = Sar; D-Lys at 22) [21-31-04-T01-N007]"
unit_spec = "nM"
observed_value = 30


P. ACMVCHMMEDGTCA (linker 2-5-13 via TBMB) [21-31-N002]
Q. CIECYIMEDGTCA (linker 1-4-12 via TBMB) [21-31-01-N001]
R. FCSECYMMEDGTCA (linker 2-5-13 via TBMB) [21-31-11-T01-N001]
Rank the 3 binders: largest Ki first, smallest last. # the answer lists labels in the order requested
Q, P, R
